Reference for the values: the supplement of paper PMC10567573

B1: MED27 (parent)
chain: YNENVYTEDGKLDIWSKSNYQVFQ

- Variants of: B1
- protocolNotes: protein stability index of a GFP-peptide fusion (GPS, HEK-293T) (PSI 1-6); higher = more stable;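 also: lentivirally expressed fusions sorted by FACS into six bins by GFP to DsRed ratio, PSI derived from sequencing read proportions per bin multiplied by bin number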
- conditionsUsed: c terminus: a fixed tail appended
propertyName: protein stability index
Simply state the number, no unit and no words.

These recorded examples may help you get a feel for the data.
YNENVYTEDGKLDIWSLSNYQVFQ = 2.22
YNENVYTEDGKLDIWSPSNYQVFQ = 2.68
YNYNVYTEDGKLDIWSKSNYQVFQ = 1.64

Next item in the queue.
protein stability index reported for this variant YNENVYTEDGKADIWSKSNYQVFQ : 2.5
